System: Ba/F3-FGFR4-transfected cells (Homo sapiens, UniProt P22455)
Sequence (P22455 whole entry, change not shown): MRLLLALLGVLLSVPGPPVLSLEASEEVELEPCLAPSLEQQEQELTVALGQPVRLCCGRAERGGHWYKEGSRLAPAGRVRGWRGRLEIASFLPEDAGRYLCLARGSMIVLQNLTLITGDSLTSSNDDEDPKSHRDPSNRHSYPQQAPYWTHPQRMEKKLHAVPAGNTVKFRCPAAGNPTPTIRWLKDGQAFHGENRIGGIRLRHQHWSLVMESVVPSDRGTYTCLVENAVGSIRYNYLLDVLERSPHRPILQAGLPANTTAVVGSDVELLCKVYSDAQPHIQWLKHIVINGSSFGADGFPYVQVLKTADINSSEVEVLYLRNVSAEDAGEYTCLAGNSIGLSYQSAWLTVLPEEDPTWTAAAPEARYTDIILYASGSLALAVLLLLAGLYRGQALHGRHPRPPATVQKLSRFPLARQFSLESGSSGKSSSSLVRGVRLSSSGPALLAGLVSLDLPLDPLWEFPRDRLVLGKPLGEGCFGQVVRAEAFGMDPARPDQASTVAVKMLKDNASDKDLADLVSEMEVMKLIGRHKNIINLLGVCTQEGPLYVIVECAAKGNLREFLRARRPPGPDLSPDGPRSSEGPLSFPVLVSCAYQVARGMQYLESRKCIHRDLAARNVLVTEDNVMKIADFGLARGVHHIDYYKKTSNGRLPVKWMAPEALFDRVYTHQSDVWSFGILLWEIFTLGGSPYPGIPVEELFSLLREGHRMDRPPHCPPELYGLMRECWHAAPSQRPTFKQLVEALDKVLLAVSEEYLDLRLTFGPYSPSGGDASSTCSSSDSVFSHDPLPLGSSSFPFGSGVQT
Experiment Description: Ba/F3-FGFR4 cellular proliferation assay, Alamar Blue
Type: cell-based
Parameter Measured: BAF3-FGFR4 pIC50

> print(dat)
                                    molecule  result.operator  value.measured
 1  COc1cc(OC)cc(N(CCNC(C)C)c2ccc3ncc(-c4ccccc4)nc3c2)c1                =             6.4
 2  COCCN(c1cc(OC)cc(OC)c1)c1ccc2ncc(-c3ccn(C)c3)nc2c1                =             5.6
 3  COc1cc(OC)cc(N(CCO)c2ccc3ncc(N4CCC(CN)CC4)nc3c2)c1                <               5
 4  COc1cc(OC)cc(N(CCCO)c2ccc3ncc(-c4cccnc4F)nc3c2)c1                =             5.6
 5  COc1cc(OC)cc(N(CCO)c2ccc3ncc(-c4ccncc4)nc3c2)c1                =             5.9
 6  COc1cc(OC)cc(N(CCO)c2ccc3ncc(-c4cccnc4)nc3c2)c1                =             5.8
 7  COc1cc(OC)cc(N(CCCO)c2ccc3ncc(-c4ccc(N(C)C(=O)OC(C)(C)C)nc4)nc3c2)c1                <               5
 8  COCC(O)CN(c1cc(OC)cc(OC)c1)c1ccc2ncc(-c3cccnc3)nc2c1 (single isomer, unassigned) [Compound 46]                =             5.8
 9  COc1cc(OC)cc(N(CC2CC2)c2ccc3ncc(N4CCN(CCO)CC4)nc3c2)c1                <               5
10  COc1cc(OC)cc(N(CCO)c2ccc3ncc(C4CCN(C(=O)OC(C)(C)C)CC4)nc3c2)c1                <               5
11  COc1cc(OC)cc(N(CCCO)c2ccc3ncc(-c4ccnc(C(=O)NCCCCCN)c4)nc3c2)c1                =             5.0
12  COc1cc(OC)cc(N(CC2CC2)c2ccc3ncc(-n4ccc(C)n4)nc3c2)c1                <               5
13  COc1cc(OC)cc(N(CC2CC2)c2ccc3ncc(C(=O)N4CCC4)nc3c2)c1                <               5

====

// reported IC50 per item
System: KDR (h) (VEGFR2) (Homo sapiens)
Sequence (P35968 20-1356): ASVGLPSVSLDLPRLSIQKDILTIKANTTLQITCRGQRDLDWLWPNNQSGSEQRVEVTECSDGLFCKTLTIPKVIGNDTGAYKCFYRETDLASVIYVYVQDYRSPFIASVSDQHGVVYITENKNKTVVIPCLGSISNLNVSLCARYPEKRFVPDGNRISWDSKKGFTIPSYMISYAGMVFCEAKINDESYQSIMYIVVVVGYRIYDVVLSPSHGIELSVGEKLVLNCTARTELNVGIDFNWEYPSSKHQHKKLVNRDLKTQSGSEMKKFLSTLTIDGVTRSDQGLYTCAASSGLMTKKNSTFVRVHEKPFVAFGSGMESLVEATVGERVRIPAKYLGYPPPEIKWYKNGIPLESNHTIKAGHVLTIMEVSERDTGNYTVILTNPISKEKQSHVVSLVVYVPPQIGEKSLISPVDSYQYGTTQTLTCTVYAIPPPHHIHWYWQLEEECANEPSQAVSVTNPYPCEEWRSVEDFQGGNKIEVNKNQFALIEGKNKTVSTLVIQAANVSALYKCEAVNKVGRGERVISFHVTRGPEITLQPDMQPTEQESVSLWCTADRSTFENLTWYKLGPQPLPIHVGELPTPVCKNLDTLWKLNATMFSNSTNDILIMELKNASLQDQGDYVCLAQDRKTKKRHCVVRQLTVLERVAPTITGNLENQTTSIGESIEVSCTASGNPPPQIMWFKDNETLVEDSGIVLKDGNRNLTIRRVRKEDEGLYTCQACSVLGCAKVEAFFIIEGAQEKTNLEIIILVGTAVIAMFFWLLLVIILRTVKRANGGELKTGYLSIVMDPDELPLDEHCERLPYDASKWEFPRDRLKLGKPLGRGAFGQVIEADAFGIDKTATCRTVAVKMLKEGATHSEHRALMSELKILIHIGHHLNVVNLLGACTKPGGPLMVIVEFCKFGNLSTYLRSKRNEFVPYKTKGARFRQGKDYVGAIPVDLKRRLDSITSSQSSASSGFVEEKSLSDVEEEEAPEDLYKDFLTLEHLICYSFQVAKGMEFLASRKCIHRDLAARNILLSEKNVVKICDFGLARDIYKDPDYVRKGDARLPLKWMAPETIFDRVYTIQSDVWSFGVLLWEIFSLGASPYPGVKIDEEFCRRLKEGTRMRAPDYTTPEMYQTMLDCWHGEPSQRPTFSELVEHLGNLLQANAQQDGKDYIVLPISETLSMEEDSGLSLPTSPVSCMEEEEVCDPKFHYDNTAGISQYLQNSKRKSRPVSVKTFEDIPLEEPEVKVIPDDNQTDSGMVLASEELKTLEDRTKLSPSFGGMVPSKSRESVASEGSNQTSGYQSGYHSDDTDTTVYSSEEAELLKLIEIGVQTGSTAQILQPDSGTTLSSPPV
Parameter Measured: IC50

> print(dat)
                                   molecule  parameter.measured  value.measured
1  COC(=O)C1CCCN1c1cnc2ccc(N(CCO)c3cc(OC)cc(OC)c3)cc2n1 (centres unmarked)                IC50          > 1 µM
2  COc1cc(OC)cc(N(CC2CC2)c2ccc3ncc(-n4cncn4)nc3c2)c1                IC50          > 1 µM
3  COc1cc(OC)cc(N(CCNC(C)C)c2ccc3ncc(-c4ccc(N5CCN(C)CC5)nc4)nc3c2)c1                IC50        0.135 µM
4  COc1cc(OC)cc(N(CC2CC2)c2ccc3ncc(C(=O)Nc4cncn4C)nc3c2)c1                IC50         > 10 µM
5  COc1cc(OC)cc(N(CC2CC2)c2ccc3ncc(-c4cnco4)nc3c2)c1                IC50        0.912 µM
6  COc1cc(OC)cc(N(CC2CC2)c2ccc3ncc(Nc4nccs4)nc3c2)c1                IC50          > 1 µM
7  COc1cc(OC)cc(N(CCN2CCNCC2)c2ccc3ncc(-c4ccc(N)nc4)nc3c2)c1                IC50       0.0457 µM
8  COCCN(c1cc(OC)cc(OC)c1)c1ccc2ncc(-c3ccn(C)c3)nc2c1                IC50        0.107 µM

====

System: Ba/F3-FGFR3-transfected cells (Homo sapiens)
Sequence (P22607 whole entry, change not shown): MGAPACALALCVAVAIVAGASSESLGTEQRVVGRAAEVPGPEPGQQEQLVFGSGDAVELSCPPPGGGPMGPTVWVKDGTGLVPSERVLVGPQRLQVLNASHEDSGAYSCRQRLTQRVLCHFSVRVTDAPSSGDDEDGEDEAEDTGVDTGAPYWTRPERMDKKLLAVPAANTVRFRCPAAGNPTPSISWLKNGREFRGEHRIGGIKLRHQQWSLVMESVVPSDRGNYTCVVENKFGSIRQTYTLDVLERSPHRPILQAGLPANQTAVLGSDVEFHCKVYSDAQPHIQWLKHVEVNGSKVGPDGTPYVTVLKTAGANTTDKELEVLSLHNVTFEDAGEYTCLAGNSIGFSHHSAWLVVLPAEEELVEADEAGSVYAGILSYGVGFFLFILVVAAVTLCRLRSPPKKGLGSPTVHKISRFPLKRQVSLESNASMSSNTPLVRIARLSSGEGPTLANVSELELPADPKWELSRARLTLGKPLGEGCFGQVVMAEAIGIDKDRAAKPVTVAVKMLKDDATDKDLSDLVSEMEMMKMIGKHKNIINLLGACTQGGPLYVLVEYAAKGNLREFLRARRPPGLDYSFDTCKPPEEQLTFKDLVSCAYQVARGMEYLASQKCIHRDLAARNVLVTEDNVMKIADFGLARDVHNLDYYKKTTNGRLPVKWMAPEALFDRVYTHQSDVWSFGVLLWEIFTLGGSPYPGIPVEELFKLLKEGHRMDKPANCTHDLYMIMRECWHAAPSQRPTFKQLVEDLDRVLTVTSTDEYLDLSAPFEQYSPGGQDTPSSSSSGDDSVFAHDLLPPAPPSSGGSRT
Experiment Description: Ba/F3-FGFR3 (minus IL3) cellular proliferation assay, Alamar Blue
Type: cell-based
Condition Details: minus IL3, 96 well
Description: Ba/F3-FGFR3 (Minus IL3 or Plus IL3) (Cellular Proliferation Assay) Cells were put in an incubator at 37° C. and 5% CO2. After 24 hours, 10 μl of Alamar Blue solution (0.5 mM K3Fe(CN)6, 0.5 mM KaFe(CN)6, 0.15 mM Resazurin and 100 mM Phosphate Buffer) was added to the wells, incubated for 4 hours at 37° C. and 5% CO2 before RFU's (Relative Fluorescence Units) (ex. 540 nm., em. 590 nm.) were measured in a flurorescence plate reader. […]
# BAF3-FGFR 3 (MIN IL3) 96 well pIC50 per record follows
Parameter Measured: BAF3-FGFR 3 (MIN IL3) 96 well pIC50

> print(dat)
                                   compound                                    system  result.operator  value.measured
1  COc1cc(OC)cc(N(CC2CC2)c2ccc3ncc(-c4ccnc(N5CCN(C)CC5)c4)nc3c2)c1 [Compound 37]  Ba/F3-FGFR3-transfected cells (Homo sapiens)                =            5.77
2  COc1cc(OC)cc(N(CC2CC2)c2ccc3ncc(C#Cc4cncn4C)nc3c2)c1 [Compound 22]  Ba/F3-FGFR3-transfected cells (Homo sapiens)                =            5.04
3  COc1cc(OC)cc(N(CC2CC2)c2ccc3ncc(Nc4nncs4)nc3c2)c1 [Compound 102]  Ba/F3-FGFR3-transfected cells (Homo sapiens)                <               5
4  COc1cc(OC)cc(N(CC2CC2)c2ccc3ncc(-c4nccs4)nc3c2)c1 [Compound 97]  Ba/F3-FGFR3-transfected cells (Homo sapiens)                <               5

====

# key: entry, value: BAF3-FGFR4 pIC50
System: Ba/F3-FGFR4-transfected cells (Homo sapiens, UniProt P22455)
Experiment Description: Ba/F3-FGFR4 cellular proliferation assay, Alamar Blue
Type: cell-based
Parameter Measured: BAF3-FGFR4 pIC50

> print(dat)
                                    molecule  result.operator  value.measured
 1  COCC(CN(c1cc(OC)cc(OC)c1)c1ccc2ncc(-c3cccnc3)nc2c1)OC(C)=O (single isomer, unassigned) [Compound 52]                =             5.2
 2  COc1cc(OC)cc(N(CCO)c2ccc3ncc(-c4ccc(N5CCNCC5)nc4)nc3c2)c1                =             6.6
 3  COc1cc(OC)cc(N(CC2CC2)c2ccc3ncc(-c4ocnc4C)nc3c2)c1                <               5
 4  COc1cc(OC)cc(N(CCCO)c2ccc3ncc(-c4ccnc(Cl)c4)nc3c2)c1                <               5
 5  COCC(O)CN(c1cc(OC)cc(OC)c1)c1ccc2ncc(-c3cccnc3)nc2c1 (single isomer, unassigned) [Compound 47]                =             5.5
 6  COc1cc(OC)cc(N(CCNC(C)C)c2ccc3ncc(-c4ccn(C)c4)nc3c2)c1                =             7.2
 7  COc1cc(OC)cc(N(CCO)c2ccc3ncc(-c4ccc(N5CCOCC5)nc4)nc3c2)c1                =             6.1
 8  CNCCN(c1cc(OC)cc(OC)c1)c1ccc2ncc(-c3ccc(NC(=O)OC(C)(C)C)nc3)nc2c1                =             5.9
 9  COc1cc(OC)cc(N(CC2CO2)c2ccc3ncc(-c4ccc(N)nc4)nc3c2)c1 (stereo not shown)                =             6.2
10  COc1cc(OC)cc(N(CCO)c2ccc3ncc(-c4ccc(N5CCN(C)CC5)nc4)nc3c2)c1                <               5
11  COc1cc(OC)cc(N(CCNC(C)C)c2ccc3ncc(-n4cnc(COC(C)=O)c4)nc3c2)c1                =             6.4
12  COc1cc(OC)cc(N(CCNC(C)C)c2ccc3ncc(C(=O)NCCCN4CCCCC4)nc3c2)c1                =             5.7
13  COc1cc(OC)cc(N(CC2CC2)c2ccc3ncc(-c4nnn(C)n4)nc3c2)c1                <               5
14  COc1cc(OC)cc(N(CC#Cc2ncccn2)c2ccc3ncc(-c4cccnc4)nc3c2)c1                =             6.9
15  COc1cc(OC)cc(N(CC2CC2)c2ccc3ncc(-c4cn[nH]n4)nc3c2)c1                <               5
16  COc1cc(OC)cc(N(CCCO)c2ccc3ncc(-c4ccc(F)nc4)nc3c2)c1                =             5.5
